Molecular target: EcDHFR L28Q (Escherichia coli, UniProt P0ABQ4, L28Q)
Construct: using E. coli DHFR template previously synthesized by GeneScript
Assay: Enzyme inhibition assay (NADPH oxidation, 340 nm)
pKi: −log10 of the molar value.
measured endpoint: pKi

{"columns": ["compound", "subject of test", "test result"],
 "data": [
  ["CCc1nc(N)nc(N)c1C#CC(C)c1cc(-c2ccc(C(N)=O)cc2)ccc1Cl (centres unmarked) [UCP1228]", "EcDHFR L28Q (Escherichia coli, UniProt P0ABQ4, L28Q)", 7.98],
  ["CCc1nc(N)nc(N)c1C#CC(C)c1cc2c(c(-c3ccc(CN)cc3)c1)OCO2 (centres unmarked) [UCP1223]", "EcDHFR L28Q (Escherichia coli, UniProt P0ABQ4, L28Q)", 8.13]
]}
